System: Staphylococcus sp.
TEST DESCRIPTION: in vitro antibacterial evaluation, MIC by broth dilution
Type: cell-based
TEST PARAMETERS: broth dilution, 18 hours at 35° C.
Numbered stars: 1 amine (or outer) side, 2 acyl side, 3 side chain; on linkers, the order of the positions; unused ones are H or OH. Square brackets hold non-standard residues; d marks the D form. Peptide text beside a SMILES is read from it. * marks the point of attachment. ξ: configuration not given here. X1 = N=C1NCC(C(O)C(N[*:1])C(=O)[*:2])N1C1OC(CO)C(O)C(O)C1O; ξEnduracididine(βξ-OH,4'ξ) = N=C1NCC(C(O)C(N)C(=O)O)N1; X2 = OCC1OC(OC2C(CO)OC(*)C(O)C2O)C(O)C(O)C1O
# MIC Staphylococcus aureus-SMITH (GC 4543) listing for each entry below

The examples below pair each entry with its known result.
{"columns": ["COMPOUND", "RESULT"],
 "data": [
  ["CC(c1ccc(F)cc1)C1NC(=O)CNC(=O)C(CO)NC(=O)C(C(O)C2CNC(=N)N2C2OC(CO)C(O)C(O)C2O)NC(=O)C(C(O)C2CNC(=N)N2)NC(=O)C(Cc2ccc(OC3OC(CO)C(OC4OC(CO)C(O)C(O)C4O)C(O)C3O)cc2)NC1=O (stereo not drawn) [Example 261a]", ">64 µg/mL"],
  ["CC(c1ccccc1)C1NC(=O)CNC(=O)C(CO)NC(=O)C(CC2CNC(=N)N2C2OC(CO)C(O)C(O)C2O)NC(=O)C(CC2CNC(=N)N2)NC(=O)C(Cc2ccc(OC3OC(CO)C(OC4OC(CO)C(O)C(O)C4O)C(O)C3O)cc2)NC1=O (stereo not drawn) [Example 277a]", ">128 µg/mL"]
]}

--- query ---
Fill in the recorded MIC Staphylococcus aureus-SMITH (GC 4543) for this compound, with Staphylococcus sp. as test system: N=C1NCC(C(O)C2NC(=O)C(Cc3ccc(OC4OC(CO)C(OC5OC(CO)C(O)C(O)C5O)C(O)C4O)cc3)NC(=O)C(Cc3ccccc3)NC(=O)CNC(=O)C(CO)NC(=O)C(C(O)C3CNC(=N)N3C3OC(CO)C(O)C(O)C3O)NC2=O)N1 (stereo not drawn) [Example 282] (cyclo(GFY(X2)[ξEnduracididine(βξ-OH,4'ξ)][X1]S); configuration not given here)
>128 µg/mL
